assay: Rat pharmacokinetic study; format: in vivo, male Sprague-Dawley rats; conditions: male, Sprague-Dawley, plasma, po, 20 mg/kg
EXPERIMENTAL_ENDPOINT: AUC(0-t)

Could you please provide reported AUC(0-t) for `COc1ccc(S(F)(F)(F)(F)F)cc1CN[C@H]1CCCN[C@H]1c1ccccc1` ? Thanks!
740 ng·h/mL

* * *

experiment: Rat pharmacokinetic study; assay type: in vivo, male Sprague-Dawley rats; settings: male, Sprague-Dawley, plasma, oral, p.o. 20 mg/kg vs i.v. 4 mg/kg
EXPERIMENTAL_ENDPOINT: bioavailability (%)
Reply numerically in %, unit not repeated.

Could you please provide reported bioavailability for `COc1ccc(S(F)(F)(F)(F)F)cc1CN[C@H]1CCCN[C@H]1c1ccccc1` ? Thanks!
22.4

* * *

biological target: human NK-1 receptor (NK-1/HEK293) (Homo sapiens (Human)); assay: NK-1 calcium flux FLIPR antagonist assay; conditions: NK-1 FLIPR antagonist mode
Sequence (P25103 whole entry): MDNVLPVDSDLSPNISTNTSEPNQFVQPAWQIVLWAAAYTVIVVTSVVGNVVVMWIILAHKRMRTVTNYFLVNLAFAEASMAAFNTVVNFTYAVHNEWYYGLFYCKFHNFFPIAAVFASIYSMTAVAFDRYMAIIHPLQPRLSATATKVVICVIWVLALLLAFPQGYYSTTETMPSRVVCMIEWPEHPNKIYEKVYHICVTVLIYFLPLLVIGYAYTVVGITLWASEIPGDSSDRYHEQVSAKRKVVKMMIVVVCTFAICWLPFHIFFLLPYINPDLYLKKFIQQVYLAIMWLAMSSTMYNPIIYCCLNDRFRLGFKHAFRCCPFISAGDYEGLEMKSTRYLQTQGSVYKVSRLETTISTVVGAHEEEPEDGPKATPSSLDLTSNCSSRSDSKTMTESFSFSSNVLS
This section presents molecules with their documented IC50 values.
Reply numerically in nM, unit not repeated.

SMILES_STRING | SYSTEM_NAME | IC50, nM
COc1ccc(S(F)(F)(F)(F)F)cc1CN[C@H]1CCCN[C@H]1c1ccccc1 | human NK-1 receptor (NK-1/HEK293) (Homo sapiens (Human)) | 6.15

--- query ---
Could you please provide reported IC50 for `[2H]C([2H])([2H])Oc1ccc(S(F)(F)(F)(F)F)cc1CN[C@H]1CCCN[C@H]1c1ccccc1` ? Thanks!
22.2

* * *

test: Rat pharmacokinetic study; assay type: in vivo, male Sprague-Dawley rats; conditions: male, Sprague-Dawley, plasma, po, 20 mg/kg
EXPERIMENTAL_ENDPOINT: Tmax
Write your answer as a measured quantity: the number, then the unit.

Could you please provide reported Tmax for `COc1ccc(S(F)(F)(F)(F)F)cc1CN[C@H]1CCCN[C@H]1c1ccccc1` ? Thanks!
1.4 h

* * *

This section presents molecules with their documented pIC50 values.
target: human NK-2 receptor (NK-2/HEK293) (Homo sapiens (Human), UniProt P21452); test: NK-2 calcium flux FLIPR antagonist assay; conditions: NK-2 FLIPR antagonist mode
Sequence (P21452 whole entry): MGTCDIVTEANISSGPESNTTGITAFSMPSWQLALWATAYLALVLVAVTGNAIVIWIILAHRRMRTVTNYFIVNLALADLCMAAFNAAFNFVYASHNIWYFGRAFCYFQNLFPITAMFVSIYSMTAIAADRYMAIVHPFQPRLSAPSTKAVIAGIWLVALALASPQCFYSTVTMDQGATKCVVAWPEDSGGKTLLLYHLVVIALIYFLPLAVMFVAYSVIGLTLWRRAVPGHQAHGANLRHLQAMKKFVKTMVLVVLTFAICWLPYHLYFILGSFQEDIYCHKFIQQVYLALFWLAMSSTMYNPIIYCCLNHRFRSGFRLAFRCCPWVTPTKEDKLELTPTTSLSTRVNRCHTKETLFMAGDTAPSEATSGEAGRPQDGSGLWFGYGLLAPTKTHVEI
pIC50: −log10 of the molar value.

SMILES_STRING | pIC50
COc1ccc(S(F)(F)(F)(F)F)cc1CN[C@H]1CCCN[C@H]1c1ccccc1 | < 5.00

--- query ---
State pIC50 (human NK-2 receptor (NK-2/HEK293) (Homo sapiens (Human), UniProt P21452)) of `[2H]C([2H])([2H])Oc1ccc(S(F)(F)(F)(F)F)cc1CN[C@H]1CCCN[C@H]1c1ccccc1` .
< 5.00

* * *

assay: Rat pharmacokinetic study; type: in vivo, male Sprague-Dawley rats; settings: male, Sprague-Dawley, plasma, po, 20 mg/kg
EXPERIMENTAL_ENDPOINT: Cmax (ng/mL)
Reply numerically in ng/mL, unit not repeated.

Could you please provide reported Cmax for COc1ccc(S(F)(F)(F)(F)F)cc1CN[C@H]1CCCN[C@H]1c1ccccc1 [Compound I] ? Thanks!
202
